- System: Huh-7
- assay_notes: Cytotoxicity against human Huh-7 cells incubated for 72 hrs by Cell Titer-Glo luminescence assay
- Type: functional
Item-by-item account of CC50
Number only, in µM; omit the unit.

Illustrative cases are given below, each with its answer.
NCC(O)CN(c1ccccc1)c1ccccc1 (racemic) : 100
NC[C@@H](O)CN(c1ccccc1)c1ccccc1 : 79

In the following, a different compound is considered.
Entry "NC[C@H](O)CN(c1ccccc1)c1ccccc1" — recorded CC50 = 120

###

Item-by-item account of pIC50
- Tested on: West Nile virus
- assay_notes: Antiviral activity against WNV infected in human Huh-7 cells preincubated with cells for 1 hr and measured after 4 days by plaque reduction assay
- Type: functional, organism-based
Lab note — pIC50 values are minus log10 of concentrations in M.

Illustrative cases are given below, each with its answer.
NC(=O)c1ncn([C@@H]2O[C@H](CO)[C@@H](O)[C@H]2O)n1 : 4.04
NC[C@@H](O)CN(c1ccccc1)c1ccccc1 : 6.06
NC[C@H](O)CN(c1ccccc1)c1ccccc1 : 6.05

In the following, a different molecule is considered.
Entry NCC(O)CN(c1ccccc1)c1ccccc1 (racemic) — recorded pIC50 = 5.64

###

- experimental_target: ATP-dependent RNA helicase DDX3X (Homo sapiens) (UniProt O00571)
- Sequence (O00571 2-662 limits assumed): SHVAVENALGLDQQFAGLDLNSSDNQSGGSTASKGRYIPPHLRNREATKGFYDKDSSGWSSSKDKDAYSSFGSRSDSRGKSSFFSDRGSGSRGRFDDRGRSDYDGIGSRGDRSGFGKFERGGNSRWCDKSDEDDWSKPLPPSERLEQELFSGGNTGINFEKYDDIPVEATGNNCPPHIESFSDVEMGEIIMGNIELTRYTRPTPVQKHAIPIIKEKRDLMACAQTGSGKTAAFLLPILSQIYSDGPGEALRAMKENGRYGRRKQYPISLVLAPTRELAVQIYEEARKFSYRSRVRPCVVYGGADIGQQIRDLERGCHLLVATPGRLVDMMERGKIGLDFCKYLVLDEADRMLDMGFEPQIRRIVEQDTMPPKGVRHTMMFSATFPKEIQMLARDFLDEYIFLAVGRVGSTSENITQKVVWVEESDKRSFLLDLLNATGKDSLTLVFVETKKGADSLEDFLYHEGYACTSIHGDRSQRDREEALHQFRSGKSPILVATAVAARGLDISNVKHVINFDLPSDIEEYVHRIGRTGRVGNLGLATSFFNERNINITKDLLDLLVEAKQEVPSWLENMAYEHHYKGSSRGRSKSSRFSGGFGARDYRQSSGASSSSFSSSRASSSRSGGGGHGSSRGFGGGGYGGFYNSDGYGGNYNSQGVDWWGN
- assay_notes: Inhibition of human recombinant full length DDX3X helicase activity expressed in Escherichia coli using dsRNA as substrate measured after 40 mins by FRET assay
Activity calls are given as the source filed them. No cut-off for these calls is given here.
result_type: ID50

CC(=O)N1c2ccccc2CCc2cc([N+](=O)[O-])ccc21 : inactive
NC[C@H](O)CN(c1ccccc1)c1ccccc1 : 7 nM
CC1CC(C)CN(S(=O)(=O)c2ccc(N)cc2)C1 (stereo not drawn) : inactive
NCC(O)CN(c1ccccc1)c1ccccc1 (racemic) : 2 nM
CNC(=O)N1c2ccccc2CCc2ccccc21 : inactive
NC[C@@H](O)CN(c1ccccc1)c1ccccc1 : 6 nM
Nc1ccc(Nc2nc3ccccc3[nH]2)cc1 : inactive
COc1ccc(CN)cc1Cn1cccn1 : inactive
OC(C#CCN1CCCCC1)(c1ccccc1)c1ccccc1 : inactive
CC(N)Cc1cn(Cc2ccccc2)c2ccccc12 (stereo not drawn) : inactive

Entry NCC(O)CN(c1ccccc1)c1ccccc1 (stereo not drawn) — recorded ID50 = 700 nM

Entry "CCOC(=O)Nc1ccc2c(c1)N(C(=O)CCN(CC)CC)c1ccccc1CC2" — recorded ID50 = inactive

Entry "Nc1ccc(S(=O)(=O)c2ccccc2)cc1" — recorded ID50 = 200000 nM
